IC50 reference
# target system: CT-L activity of purified 20S proteasome (Homo sapiens, UniProt P20618+P28074)
# procedure text: in vitro CT-L activity of purified 20S proteasome
# Type: biochemical
# experimental context: Table 1; read-out: IC50 (μM) Chymotrypsin-like activity

> print(dat)
                                   compound  measurement.label  readout.value
1  Cc1ccccc1OCC(=O)N(Cc1nc(-c2ccccc2)no1)C(C)C [11p]               IC50        > 10 µM

Challenge: I'd like to know its IC50. The compound in question is CC(C)N(Cc1nc(-c2ccccc2)no1)C(=O)COc1ccc(-c2ccccc2)cc1 [11q]
Response given: > 10 µM

Challenge: I'd like to know its IC50. The compound in question is Cc1cccc(OCC(=O)N(Cc2nc(-c3ccccc3)no2)C(C)C)c1 [11o]
Response given: > 10 µM

Attribution: patent US9878999B2
